I'd be grateful if you could share measured Kd for these entries.
Target: T1, LRRC15 (leucine-rich repeat-containing protein 15) (human, UniProt Q8TF66 22-538, limits assumed)
T1 construct: The KD sentences say only 'LRRC15'; also called human LRRC15
T1 sequence (looked up): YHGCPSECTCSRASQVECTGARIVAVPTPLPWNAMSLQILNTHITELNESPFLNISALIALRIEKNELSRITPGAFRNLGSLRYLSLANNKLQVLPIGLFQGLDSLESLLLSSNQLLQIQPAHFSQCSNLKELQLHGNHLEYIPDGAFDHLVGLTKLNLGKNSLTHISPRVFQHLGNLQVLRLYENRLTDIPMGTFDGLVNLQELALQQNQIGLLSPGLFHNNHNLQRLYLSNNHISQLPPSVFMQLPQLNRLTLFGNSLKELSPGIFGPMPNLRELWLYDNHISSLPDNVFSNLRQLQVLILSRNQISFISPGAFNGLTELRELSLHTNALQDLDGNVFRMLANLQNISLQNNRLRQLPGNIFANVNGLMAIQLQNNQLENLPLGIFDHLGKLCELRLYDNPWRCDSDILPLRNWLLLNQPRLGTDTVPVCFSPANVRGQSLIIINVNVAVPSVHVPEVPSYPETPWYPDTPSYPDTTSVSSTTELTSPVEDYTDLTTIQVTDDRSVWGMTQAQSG
Assay: binding analysis (koff and/or KD) of mAb expressed in CHO cells; method not named
Note: unit nM is implicit; provide only the numeric part.

### Prompt Recorded Kd for hzK713 VHv3 (N55S) / hzK713 VLv1 (antibody, V domains shown, The KD sentence prints 'hzJ48 VHv2-v4', read as hzK713 VHv2-v4; also called printed in the KD sentence as hzJ48 VHv3 with hzK713 VLv1) VH: QVQLVQSGAEVKKPGASVKVSCKASGYTFTDYYMNWVRQAPGQRLEWMGRVSPSSGGTNYNQKFRGRVTITRDTSASTAYMELSSLRSEDTAVYYCARRGAGYSYYAMDYWGQGTTVTVSS VL: DIVMTQSPDSLAVSLGERATINCRASESVDSYGNSLMYWYQQKPGQPPKLLIYLASNLESGVPDRFSGSGSGTDFTLTISSLQAEDVAVYYCQQNNEDPLTFGGGTKVEIK , please?
### Response 0.212

### Prompt Try this binder next: hzJ48 VHv3 / hzJ48 VLv1.3 (S93A) (antibody, V domains shown, Human IgG1 or IgG1null and human kappa constant regions) VH: QVQLVQSGAEVKKPGASVKVSCKASGYTFTDYYINWVRQAPGQGLEWMGWIYPGSGNTKYAQKFQGRVTMTRDTSTSTVYMELSSLRSEDTAVYYCARWGYGAYFTYWGQGTLVTVSS VL: DIQMTQSPSSLSASVGDRVTITCKASQNVGINVAWYQQKPGKAPKLLIYSASYRSSGVPSRFSGSGSGTDFTLTISSLQPEDFATYYCQQYNAFPYTFGGGTKVEIK
### Response 0.6

### Prompt Try this binder next: hzK713 VHv4 (G56A) / hzK713 VLv1 (antibody, V domains shown, The KD sentence prints 'hzJ48 VHv2-v4', read as hzK713 VHv2-v4; also called printed in the KD sentence as hzJ48 VHv4 with hzK713 VLv1) VH: QVQLVQSGAEVKKPGASVKVSCKASGYTFTDYYMNWVRQAPGQRLEWMGRVSPSNAGTNYNQKFRGRVTITRDTSASTAYMELSSLRSEDTAVYYCARRGAGYSYYAMDYWGQGTTVTVSS VL: DIVMTQSPDSLAVSLGERATINCRASESVDSYGNSLMYWYQQKPGQPPKLLIYLASNLESGVPDRFSGSGSGTDFTLTISSLQAEDVAVYYCQQNNEDPLTFGGGTKVEIK
### Response 0.334

### Prompt Try this binder next: hzK713 VHv1 / hzK713 VLv1 (antibody, V domains shown, Expressed in CHO cells; also called parent antibody comprising hzK713 VLv1 in combination with heavy chain hzK713 VHv1) VH: QVQLVQSGAEVKKPGASVKVSCKASGYTFTDYYMNWVRQAPGQRLEWMGRVSPSNGGTNYNQKFRGRVTITRDTSASTAYMELSSLRSEDTAVYYCARRGAGYSYYAMDYWGQGTTVTVSS VL: DIVMTQSPDSLAVSLGERATINCRASESVDSYGNSLMYWYQQKPGQPPKLLIYLASNLESGVPDRFSGSGSGTDFTLTISSLQAEDVAVYYCQQNNEDPLTFGGGTKVEIK
### Response 0.208

### Prompt Try this binder next: hzJ48 VHv3 / hzJ48 VLv1.2 (N92Q) (antibody, V domains shown, Human IgG1 or IgG1null and human kappa constant regions) VH: QVQLVQSGAEVKKPGASVKVSCKASGYTFTDYYINWVRQAPGQGLEWMGWIYPGSGNTKYAQKFQGRVTMTRDTSTSTVYMELSSLRSEDTAVYYCARWGYGAYFTYWGQGTLVTVSS VL: DIQMTQSPSSLSASVGDRVTITCKASQNVGINVAWYQQKPGKAPKLLIYSASYRSSGVPSRFSGSGSGTDFTLTISSLQPEDFATYYCQQYQSFPYTFGGGTKVEIK
### Response 1.6
